// provenance: the supplement of paper PMC3334620

# tgt: Stb5 (UniProt P38699)
# Sequence: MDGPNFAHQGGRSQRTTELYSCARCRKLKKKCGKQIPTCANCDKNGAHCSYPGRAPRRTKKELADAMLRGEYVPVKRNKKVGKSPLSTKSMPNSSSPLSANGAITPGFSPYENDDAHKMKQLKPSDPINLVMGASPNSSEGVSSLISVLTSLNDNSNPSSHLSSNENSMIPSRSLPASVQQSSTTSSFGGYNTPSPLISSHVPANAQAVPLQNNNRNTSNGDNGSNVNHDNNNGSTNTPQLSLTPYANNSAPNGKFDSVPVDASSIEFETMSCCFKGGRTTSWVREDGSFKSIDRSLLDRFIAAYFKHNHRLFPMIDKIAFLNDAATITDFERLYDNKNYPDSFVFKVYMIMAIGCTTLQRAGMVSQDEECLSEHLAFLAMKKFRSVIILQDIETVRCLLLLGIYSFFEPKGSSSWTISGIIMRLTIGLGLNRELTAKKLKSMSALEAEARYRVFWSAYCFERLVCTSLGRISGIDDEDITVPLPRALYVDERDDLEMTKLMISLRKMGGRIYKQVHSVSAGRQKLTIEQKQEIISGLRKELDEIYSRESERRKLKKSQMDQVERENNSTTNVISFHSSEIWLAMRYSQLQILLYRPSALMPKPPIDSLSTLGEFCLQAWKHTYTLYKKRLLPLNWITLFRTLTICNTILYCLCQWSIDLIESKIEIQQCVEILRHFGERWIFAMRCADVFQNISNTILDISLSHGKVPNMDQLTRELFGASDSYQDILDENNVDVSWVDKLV
# assay overview: PBM E-score (8-mer binding enrichment) (E-score (-0.5 to 0.5)); higher = stronger / more preferred TF binding
# particulars: protein concentration: 200 nM; construct: GST-full length
In all, about 33,000 sequences were measured (“E-score (-0.5 to 0.5)”: median about -0.054, highest 2% from about 0.35 on). What follows is part of a selection rich in the highest values, with near analogues and random picks from the rest.
Reported PBM E-score by item:
Keep the answer to the number alone.

AATACTCC; 0.173
ATCTGCCA; -0.118
TATGCACA; -0.16
ACGCCAGC; -0.181
CCGCCCGG; 0.344

Please give the measured PBM E-score for this sequence: "ATATTCTG"
0.0727

I am curious: what PBM E-score value has been reported for "ACGGGCCG" ?
0.194

PBM E-score for "GAACCTTC" ?
-0.201

What measured PBM E-score goes with "ACGGGGAT" ?
0.415

// lookup PBM E-score for "ATACCAAT"
-0.00644

* * *

# tgt: Stb5 (UniProt P38699)
# Sequence: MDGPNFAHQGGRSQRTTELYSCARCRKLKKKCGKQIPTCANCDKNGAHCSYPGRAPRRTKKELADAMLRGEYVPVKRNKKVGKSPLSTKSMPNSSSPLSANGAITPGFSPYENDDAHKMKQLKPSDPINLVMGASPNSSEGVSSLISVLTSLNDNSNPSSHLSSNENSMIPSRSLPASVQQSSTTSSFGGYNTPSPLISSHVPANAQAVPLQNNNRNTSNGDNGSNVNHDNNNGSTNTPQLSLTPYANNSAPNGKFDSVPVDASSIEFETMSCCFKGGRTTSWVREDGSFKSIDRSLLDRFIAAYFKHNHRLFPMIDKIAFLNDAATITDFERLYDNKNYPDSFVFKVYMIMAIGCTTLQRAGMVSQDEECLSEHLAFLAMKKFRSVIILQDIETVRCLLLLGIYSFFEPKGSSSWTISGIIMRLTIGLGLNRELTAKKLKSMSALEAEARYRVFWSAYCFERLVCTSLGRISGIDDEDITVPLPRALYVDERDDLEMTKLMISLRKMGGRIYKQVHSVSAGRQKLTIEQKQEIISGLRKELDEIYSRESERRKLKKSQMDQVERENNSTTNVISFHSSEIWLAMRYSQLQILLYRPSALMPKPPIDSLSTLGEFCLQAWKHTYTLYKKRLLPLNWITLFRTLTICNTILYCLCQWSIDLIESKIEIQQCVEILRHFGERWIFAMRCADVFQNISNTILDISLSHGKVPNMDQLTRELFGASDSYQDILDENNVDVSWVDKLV
# assay overview: PBM E-score (8-mer binding enrichment) (E-score (-0.5 to 0.5)); higher = stronger / more preferred TF binding
# particulars: protein concentration: 200 nM; construct: GST-full length
The full ranking holds about 33,000 sequences; the median of “E-score (-0.5 to 0.5)” is about -0.054, and the highest 2% start at about 0.35. This is one part of a sample in which the highest values are shown more often than they occur.
PBM E-score values, listed per item
Would you mind answering with just the numeric figure?

Solved cases below.
CCCAGTAG; -0.128
ACTTACCG; 0.195
AAGTGAAC; -0.129
CGGCGACG; 0.194
ATTCAAAG; -0.12

Using the record for "ACCATCCA" , report its PBM E-score.
-0.118

// PBM E-score lookup, key: "CCTAGGTC"
-0.15

Quick check: PBM E-score of "CACCGGGC" ?
0.375

Query (sequence): "GTAGGCAA" ; field requested: PBM E-score
-0.246

Would you mind telling me what PBM E-score value was observed for "AGGAATTA" ?
-0.00087

I am curious: what PBM E-score value has been reported for "AGGAACTA" ?
0.0488

Find the recorded PBM E-score belonging to "TTCTCCAA" and report it.
-0.0481

Quick one: PBM E-score of "CGGGGGAA" ?
0.257

* * *

# tgt: Stb5 (UniProt P38699)
# Sequence: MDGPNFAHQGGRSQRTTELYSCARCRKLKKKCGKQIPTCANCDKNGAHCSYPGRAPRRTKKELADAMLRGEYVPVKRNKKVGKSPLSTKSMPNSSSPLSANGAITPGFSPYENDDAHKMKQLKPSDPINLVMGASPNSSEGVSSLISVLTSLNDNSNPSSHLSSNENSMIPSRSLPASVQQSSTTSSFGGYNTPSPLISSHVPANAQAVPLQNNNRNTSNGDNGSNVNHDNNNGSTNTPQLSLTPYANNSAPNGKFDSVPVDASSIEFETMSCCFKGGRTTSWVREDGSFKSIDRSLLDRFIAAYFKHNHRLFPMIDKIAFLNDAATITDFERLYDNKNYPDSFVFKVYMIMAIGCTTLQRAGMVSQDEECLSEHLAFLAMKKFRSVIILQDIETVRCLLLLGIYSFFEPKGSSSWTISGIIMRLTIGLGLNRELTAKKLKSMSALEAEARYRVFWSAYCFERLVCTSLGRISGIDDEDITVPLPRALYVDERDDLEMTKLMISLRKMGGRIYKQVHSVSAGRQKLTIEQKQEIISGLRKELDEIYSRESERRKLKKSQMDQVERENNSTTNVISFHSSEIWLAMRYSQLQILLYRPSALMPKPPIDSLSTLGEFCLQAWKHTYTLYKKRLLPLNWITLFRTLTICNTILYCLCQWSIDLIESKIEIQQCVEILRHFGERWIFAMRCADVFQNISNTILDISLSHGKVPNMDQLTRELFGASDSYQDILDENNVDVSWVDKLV
# assay overview: PBM E-score (8-mer binding enrichment) (E-score (-0.5 to 0.5)); higher = stronger / more preferred TF binding
# particulars: protein concentration: 200 nM; construct: GST-full length
In all, about 33,000 sequences were measured (“E-score (-0.5 to 0.5)”: median about -0.054, highest 2% from about 0.35 on). The full list was thinned out, with the highest values kept by preference.
# thresholds on PBM E-score define classes: low value: < -0.03; medium value: ≥ -0.03 and < 0.2; high value: ≥ 0.2

GCCAGCGC; medium value
AAGCCCGG; high value
GCCGGACA; high value
CAATACCG; high value
AATTACCC; medium value

Moving on to another sequence below.
Lab note: which band did "ATCTCCAC" land in?
medium value

* * *

Documented PBM E-score across a set of sequences
# tgt: Stb5 (UniProt P38699)
# Sequence: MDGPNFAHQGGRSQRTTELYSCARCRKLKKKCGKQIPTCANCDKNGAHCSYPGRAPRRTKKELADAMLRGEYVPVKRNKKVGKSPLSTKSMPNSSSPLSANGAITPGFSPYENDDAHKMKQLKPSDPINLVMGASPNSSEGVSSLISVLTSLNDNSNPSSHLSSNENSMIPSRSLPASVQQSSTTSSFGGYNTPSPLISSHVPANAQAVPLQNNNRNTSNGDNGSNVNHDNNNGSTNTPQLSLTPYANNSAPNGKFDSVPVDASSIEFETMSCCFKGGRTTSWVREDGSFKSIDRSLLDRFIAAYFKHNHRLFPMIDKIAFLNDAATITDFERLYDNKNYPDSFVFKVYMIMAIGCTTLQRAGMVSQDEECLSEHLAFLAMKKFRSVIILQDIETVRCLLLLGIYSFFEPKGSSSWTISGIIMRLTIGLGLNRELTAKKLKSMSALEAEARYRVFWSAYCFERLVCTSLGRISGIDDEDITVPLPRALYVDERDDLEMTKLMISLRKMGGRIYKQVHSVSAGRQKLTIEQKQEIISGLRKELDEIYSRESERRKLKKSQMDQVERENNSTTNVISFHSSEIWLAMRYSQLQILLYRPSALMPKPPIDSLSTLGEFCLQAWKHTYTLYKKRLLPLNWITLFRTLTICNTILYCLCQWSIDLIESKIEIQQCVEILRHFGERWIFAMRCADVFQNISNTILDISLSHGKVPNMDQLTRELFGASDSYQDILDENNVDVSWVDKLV
# assay overview: PBM E-score (8-mer binding enrichment) (E-score (-0.5 to 0.5)); higher = stronger / more preferred TF binding
# particulars: protein concentration: 200 nM; construct: GST-full length
The full ranking holds about 33,000 sequences; the median of “E-score (-0.5 to 0.5)” is about -0.054, and the highest 2% start at about 0.35. The entries come from a sample that favours the highest values as a whole.
// return a plain number; no unit text

GCACCGGC; 0.353

For "AGGACCGC" , what is its reported PBM E-score?
0.397

Suppose we examine the sequence "ATCGTATC" ; what PBM E-score value has been reported?
-0.175

Request the reported PBM E-score associated with "AACCGACA"
0.181
